study_target: ZFP SBS#511 (synthetic)
Sequence (chain, as listed by the source): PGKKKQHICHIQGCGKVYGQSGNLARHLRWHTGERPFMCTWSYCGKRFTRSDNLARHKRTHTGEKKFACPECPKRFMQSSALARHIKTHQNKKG
assay_method_text: EMSA
test_parameters: tags: MBP fusion
readout_type: pKd
Answer as the number alone; pKd is minus log10 of concentration in mol/L.

Exercise: Sample GTTGAGGAAG (dsDNA) DNA 1: GTTGAGGAAG DNA 2: CTTCCTCAAC — what was its pKd?
Key: 7.00
